Recorded values, source patent US20230399409A1.

Quick reference: IC50, pNF-κB under IL-36 β stimulation (NCI/ADR-RES cells) of the listed items.
Target: T1, human IL-36R (human, UniProt Q9HB29 20-575)
T1 sequence (looked up): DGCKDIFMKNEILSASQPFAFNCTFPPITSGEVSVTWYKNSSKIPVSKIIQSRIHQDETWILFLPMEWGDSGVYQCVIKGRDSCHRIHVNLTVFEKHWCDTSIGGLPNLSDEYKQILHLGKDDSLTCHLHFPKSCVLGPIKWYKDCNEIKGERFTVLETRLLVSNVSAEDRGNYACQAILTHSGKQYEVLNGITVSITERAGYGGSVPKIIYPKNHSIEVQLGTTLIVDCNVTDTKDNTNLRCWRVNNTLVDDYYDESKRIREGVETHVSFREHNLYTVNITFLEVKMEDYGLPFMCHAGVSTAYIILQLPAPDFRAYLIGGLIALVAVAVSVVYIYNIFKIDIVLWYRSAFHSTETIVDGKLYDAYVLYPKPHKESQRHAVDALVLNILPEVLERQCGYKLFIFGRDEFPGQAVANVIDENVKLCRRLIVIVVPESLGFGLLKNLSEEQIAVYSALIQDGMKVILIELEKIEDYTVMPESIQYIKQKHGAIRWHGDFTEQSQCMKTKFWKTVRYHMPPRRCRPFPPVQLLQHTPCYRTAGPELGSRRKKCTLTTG
Assay: cell-based or functional assay
// return numeric value only (unit: ng/ml, not printed)

>  <BINDER>
humanized anti-IL-36R antibody 900527 (antibody, V domains shown, IgG1 (human IgG1 L234A/L235A, human kappa); also called HB0034) VH: QVQLVQSGAEVKKPGASVKVSCKASGYTFTSSWMHWAKQAPGQGLEWIGEIHPNSAKTNYNQKFQGRVTMTRDTSISTAYMELSRLRSDDTAVYYCARVDYGKPWFAYWGQGTLVTVSS VL: QIVLTQSPGTLSLSPGERATLSCRASSSVSSSYLHWYQQKPGQAPRLWIYSTSSRATGIPDRFSGSGSGTDFTLTISRLEPEDFATYYCQQFQSSPLTFGQGTKLEIK

>  <TEST_RESULT>
71.4

$$$$
>  <BINDER>
humanized anti-IL-36R antibody 900513 (antibody, V domains shown, IgG1; built from the chimeric expression plasmids (human IgG1 L234A/L235A, human kappa)) VH: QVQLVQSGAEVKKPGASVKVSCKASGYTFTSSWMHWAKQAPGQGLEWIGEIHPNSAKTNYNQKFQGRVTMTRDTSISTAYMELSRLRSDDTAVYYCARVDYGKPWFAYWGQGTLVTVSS VL: EIVLTQSPGTLSLSPGERATLSCSASSSVSSSYLHWYQQKPGQAPRLWIYSTSNRATGIPDRFSGSGSGTDFTLTISRLEPEDFATYYCQQFQSSPLTFGQGTKLEIK

>  <TEST_RESULT>
105

$$$$
>  <BINDER>
anti-IL-36R chimeric antibody 900497 (antibody, V domains shown, Human-mouse chimera: human IgG1 heavy-chain constant region with L234A and L235A (Eu numbering), human kappa constant region) VH: QVQLQQTGSVLVRPGTSVKLSCKASGYTFTSSWMHWAKQRPGQGLEWIGEIHPNSAKTNYNEKFKGKATLTVDTFSSTAYVDLSSLASEDSAVYYCARVDYGKPWFAYWGQGTLVTVSA VL: QIVLTQSPTIMSASPGERVTMTCSASSSVSSSYLHWYQQKPGSSPKLWIYSTSNLASGVPARFSGSGSGTSYSLTINSMEAEDAATYYCQQFQSSPLTFGAGTKLGLK

>  <TEST_RESULT>
115

$$$$

Continue with the next binder.
# binder humanized anti-IL-36R antibody 900534 (antibody, V domains shown, IgG1 (human IgG1 L234A/L235A, human kappa)) VH: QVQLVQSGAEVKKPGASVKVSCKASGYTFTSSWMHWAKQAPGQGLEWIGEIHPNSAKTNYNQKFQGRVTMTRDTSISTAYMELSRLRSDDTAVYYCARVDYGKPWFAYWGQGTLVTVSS VL: QIVLTQSPGTLSLSPGERATLSCRASSSVSSSYLHWYQQKPGQAPRLLIYSTSSRATGIPDRFSGSGSGTDFTLTISRLEPEDFATYYCQQFQSSPLTFGQGTKLEIK ; its IC50, pNF-κB under IL-36 β stimulation (NCI/ADR-RES cells) = 64.9
